Provenance of the data: patent US9637469B2

Biological target: human URAT1 (Homo sapiens, UniProt Q96S37)
Construct: Full-length cDNA of human URAT1 (hURAT1)
Assay: Test for inhibition of uric acid transport using human URAT1-expressing cells;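 further: three stars up to 0.2 µM two stars 0.2-2 µM one star 2-20 µM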
Assay type: cell-based
Conditions: HEK 293 cells expressing human URAT1; 14C-labeled uric acid 25 μM; uptake 37° C. for 5 min
valueKind: Inhibitory Activity (IC50 of uric acid transport inhibition)

- O=C(O)c1ccc(-c2cccnc2)n1Cc1csc2cccc(C(F)(F)F)c12: * * *
- O=C(O)c1c(Cl)nc(-c2cncc(Cl)c2)n1Cc1cc(Cl)ccc1Cl: * * *
- O=C(O)c1c(C2CC2)nc(-c2cncc(Cl)c2)n1Cc1cccc2ccccc12: * * *
- Cc1nc(-c2cccnc2)n(Cc2cc(F)cc3ccsc23)c1C(=O)O: * * *
- O=C(O)c1c(Cl)nc(-c2cccnc2)n1Cc1cc(Cl)ccc1Cl: * * *

###

Molecular target: human URAT1 (Homo sapiens, UniProt Q96S37)
Construct: Full-length cDNA of human URAT1 (hURAT1)
Test: Test for inhibition of uric acid transport using human URAT1-expressing cells;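 further: three stars up to 0.2 µM two stars 0.2-2 µM one star 2-20 µM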
Format: cell-based
Conditions: HEK 293 cells expressing human URAT1; 14C-labeled uric acid 25 μM; uptake 37° C. for 5 min
valueKind: Inhibitory Activity (IC50 of uric acid transport inhibition)

* O=C(O)c1c(C(F)(F)F)nc(-c2cncc(F)c2)n1Cc1cc(Cl)ccc1Cl | * * *
* O=C(O)c1c(C2CC2)nc(-c2cccnc2)n1Cc1csc2cccc(Br)c12 | * *
* Cc1nc(-c2cncc(-c3ccccc3)c2)n(Cc2cc(Cl)ccc2Cl)c1C(=O)O | * * *
* Cc1nc(-c2cncc(C(F)F)c2)n(Cc2cc(Cl)ccc2Cl)c1C(=O)O | * * *
* CCc1nc(-c2cncc(F)c2)n(Cc2cc(Cl)ccc2Cl)c1C(=O)O | * * *
* CCOC(=O)c1c(C)nc(-c2cccnc2)n1Cc1cccc2ccccc12 | * *
* O=C(O)c1c(CN2CCOCC2)nc(-c2cncc(Cl)c2)n1Cc1cc(Cl)ccc1Cl | * * *
* O=C(O)c1c(C2=CCCC2)nc(-c2cccnc2)n1Cc1cc(Cl)ccc1Cl | * *

###

Molecular target: human URAT1 (Homo sapiens)
Construct: Full-length cDNA of human URAT1 (hURAT1)
Sequence (Q96S37 1-553): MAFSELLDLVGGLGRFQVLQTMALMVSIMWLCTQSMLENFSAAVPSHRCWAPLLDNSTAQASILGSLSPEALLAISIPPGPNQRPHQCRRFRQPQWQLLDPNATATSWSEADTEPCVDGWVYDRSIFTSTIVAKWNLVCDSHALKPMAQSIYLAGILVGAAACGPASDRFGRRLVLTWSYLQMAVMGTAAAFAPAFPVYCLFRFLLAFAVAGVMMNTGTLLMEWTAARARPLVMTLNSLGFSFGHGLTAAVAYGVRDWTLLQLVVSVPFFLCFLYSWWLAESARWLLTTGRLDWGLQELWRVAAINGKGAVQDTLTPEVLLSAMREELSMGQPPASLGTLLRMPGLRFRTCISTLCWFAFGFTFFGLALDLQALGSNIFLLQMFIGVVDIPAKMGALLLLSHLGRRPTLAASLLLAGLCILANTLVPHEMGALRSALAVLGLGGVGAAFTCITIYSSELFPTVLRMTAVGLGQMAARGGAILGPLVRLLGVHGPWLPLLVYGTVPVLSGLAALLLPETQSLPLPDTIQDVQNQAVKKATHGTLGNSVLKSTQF
Test: Test for inhibition of uric acid transport using human URAT1-expressing cells;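 further: three stars up to 0.2 µM two stars 0.2-2 µM one star 2-20 µM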
Format: cell-based
Conditions: HEK 293 cells expressing human URAT1; 14C-labeled uric acid 25 μM; uptake 37° C. for 5 min
valueKind: Inhibitory Activity (IC50 of uric acid transport inhibition)

• Cc1ccc(Cn2c(-c3cccnc3)nc(Cl)c2C(=O)O)c2ccccc12 = * *
• Cc1nc(-c2cncc(C(F)(F)F)c2)n(Cc2cccc3ccccc23)c1C(=O)O = * *
• Cc1nc(-c2cccnc2)n(Cc2cc(Cl)cc(Cl)c2)c1C(=O)O = * * *
• Cc1nc(-c2cncc(F)c2)n(Cc2cc(Cl)sc2Cl)c1C(=O)O = * * *
• Cc1nc(-c2cccnc2)n(Cc2cc(Cl)ccc2C(F)(F)F)c1C(=O)O = * *
• Cc1nc(-c2ccccn2)n(Cc2cc(Cl)ccc2Cl)c1C(=O)O = * * *
• Cc1nc(-c2cncc(Cl)c2)n(Cc2cc(Cl)sc2Cl)c1C(=O)O = * * *
• O=C(O)c1c(C(F)(F)F)nc(-c2cncc(Cl)c2)n1Cc1cc(Cl)ccc1Cl = * * *
• Cc1nc(-c2cncc(Cl)c2)n(Cc2sc(Cl)cc2Cl)c1C(=O)O = * *
• O=C(O)c1ccc(-c2cccnc2)n1Cc1cccc2cccc(Br)c12 = * * *
• O=C(O)c1c(C(F)(F)F)nc(-c2cncc(C(F)(F)F)c2)n1Cc1cc(Cl)ccc1Cl = * * *
• Cc1nc(-c2cccnc2)n(Cc2ccc(C)c3ccccc23)c1C(=O)O = * *
• C=Cc1nc(-c2cccnc2)n(Cc2cc(Cl)ccc2Cl)c1C(=O)O = * *
• CCc1nc(-c2cccnc2)n(Cc2cc(Cl)ccc2Cl)c1C(=O)O = * * *
• Cc1nc(-c2ccncc2)n(Cc2cc(Cl)ccc2Cl)c1C(=O)O = * *
• O=C(O)c1ccc(-c2cccnc2)n1Cc1cccc2ccsc12 = * * *
• O=C(O)c1ccc(-c2cccnc2)n1Cc1cccc2cccnc12 = * *
• CC(C)c1nc(-c2cncc(Cl)c2)n(Cc2cc(Cl)ccc2Cl)c1C(=O)O = * * *
